Measured values drawn from the CheMixHub drug solubility set for this set.

# protocolText: xn = mol fraction of the nth substance listed, in the solute-free solvent
# recordedConditions: 278.15 K; x2 = 0.2812
reportedEndpoint: solubility (g/100 g solution)

Solved cases (3 shown):
| molecule | solubility (g/100 g solution) |
| --- | --- |
| O=c1cc(CBr)c2ccccc2[nH]1 + CCO + O | 0.0609 |
| CC(C)C(=O)Nc1ccc([N+](=O)[O-])c(C(F)(F)F)c1 + CCO + O | 0.894 |
| Nc1cc(-c2ccncc2)c[nH]c1=O + CCO + O | 0.00514 |

(I) Nc1ncc(Br)nc1Br + CCO + O
(II) O=C1C=CC(=O)N1c1ccccc1Br + CCO + O
Looking at I and II , which one comes out lower in solubility (g/100 g solution) terms? // output: label of the selected item
I
(I: 0.211, II: 3.54)

---

# protocolText: xn = mol fraction of the nth substance listed, in the solute-free solvent
# recordedConditions: 283.15 K; x2 = 0.2068
reportedEndpoint: solubility (g/100 g solution)

| compound | recordedMeasurement |
| --- | --- |
| O=C1C=CC(=O)N1c1ccccc1Br + CCO + O | 3.13 |
| Nc1cc(-c2ccncc2)c[nH]c1=O + CCO + O | 0.00427 |
| CC(C)C(=O)Nc1ccc([N+](=O)[O-])c(C(F)(F)F)c1 + CCO + O | 0.358 |

(I) Nc1ncc(Br)nc1Br + CCO + O
(II) O=c1cc(CBr)c2ccccc2[nH]1 + CCO + O
Which record would sort first by descending solubility (g/100 g solution), I or II ? // output: label of the selected item
I
(I: 0.214, II: 0.0559)

---

# protocolText: xn = mol fraction of the nth substance listed, in the solute-free solvent
# recordedConditions: 323.15 K; x2 = 0.7
reportedEndpoint: solubility (g/100 g solution)
Just the number.

Solved cases (2 shown):
| molecule | solubility (g/100 g solution) |
| --- | --- |
| CC(C)C(=O)Nc1ccc([N+](=O)[O-])c(C(F)(F)F)c1 + C1CCOC1 + CC(C)O | 75.4 |
| CC(C)C(=O)Nc1ccc([N+](=O)[O-])c(C(F)(F)F)c1 + CC(C)=O + CC(C)O | 76.3 |

Provide solubility (g/100 g solution) value for the following molecule: CC(C)C(=O)Nc1ccc([N+](=O)[O-])c(C(F)(F)F)c1 + CCOC(C)=O + CC(C)O
62.4

Provide solubility (g/100 g solution) value for the following molecule: Cl.NC1CCSC1=O (centres undefined) + CO + CC#N
8.51

---

# protocolText: xn = mol fraction of the nth substance listed, in the solute-free solvent
# recordedConditions: 313.15 K; x2 = 0.2307
reportedEndpoint: solubility (g/100 g solution)

Solved cases (2 shown):
| compound | reportedEndpoint | recordedMeasurement |
| --- | --- | --- |
| O=c1cc(CBr)c2ccccc2[nH]1 + CCCO + O | solubility (g/100 g solution) | 0.181 |
| CC(C)C(=O)Nc1ccc([N+](=O)[O-])c(C(F)(F)F)c1 + CC(C)O + O | solubility (g/100 g solution) | 4.54 |

(I) O=C1C=CC(=O)N1c1ccccc1Br + CC(C)O + O
(II) O=c1cc(CBr)c2ccccc2[nH]1 + CC(C)O + O
(III) Nc1ncc(Br)nc1Br + CC(C)O + O
Number of compounds to sort: 3. Sort criterion: solubility (g/100 g solution), ascending. The reply should contain the labels ordered as requested.
II, III, I
(II: 0.151, III: 0.34, I: 10.1)
